B1: HDV Ribozyme (parent)
chain: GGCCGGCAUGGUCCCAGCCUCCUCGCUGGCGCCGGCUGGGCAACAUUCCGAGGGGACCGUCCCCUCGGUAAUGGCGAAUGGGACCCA

# Variants of: B1
# Experiment description: self-cleavage, relative activity (ratio to wild type); higher = more cleavage; co-transcriptional
Let's look at some variants and their measured self-cleavage.
Format: numeric value only, no unit, no commentary.

Below, 5 variants whose answers are already recorded.
U20A C86U ... 0.119
C64A A78C ... 0.242
U23C C36A ... 0.172
C3A A77U ... 0.224
U9C C58U ... 0.886

Item: C48G G68U | self-cleavage: 0.88

Item: C30U G76C | self-cleavage: 0.683

Item: G11A C84G | self-cleavage: 0.851
